system: PPARg DBDmut IVT, anti-PPARg (DBD mutation: PPARg1 K132A/R137A, NR concentration 270 nM); assay: PBM binding z-score (relative to random genomic background probes); higher = stronger binding; sequences stand for … in GC…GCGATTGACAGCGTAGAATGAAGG

{"columns": ["Chain", "Target under test", "PBM binding z-score"],
 "data": [
  ["TCATATATGTAAAAGGTGAAAGTCGGTGTGGTAA", "PPARg DBDmut IVT, anti-PPARg (DBD mutation: PPARg1 K132A/R137A, NR concentration 270 nM)", 0.794],
  ["TCTAGTTGGTCACGGAGGTCACACAAGACGGGTA", "PPARg DBDmut IVT, anti-PPARg (DBD mutation: PPARg1 K132A/R137A, NR concentration 270 nM)", 0.71],
  ["CCTACTGGTCCACGAAAGGTCATTGATTCAGTGA", "PPARg DBDmut IVT, anti-PPARg (DBD mutation: PPARg1 K132A/R137A, NR concentration 270 nM)", -0.00763],
  ["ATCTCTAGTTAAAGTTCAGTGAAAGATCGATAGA", "PPARg DBDmut IVT, anti-PPARg (DBD mutation: PPARg1 K132A/R137A, NR concentration 270 nM)", 1.48],
  ["CCTTACTGGTCAAGGTTATAGCACGGGTGGTACG", "PPARg DBDmut IVT, anti-PPARg (DBD mutation: PPARg1 K132A/R137A, NR concentration 270 nM)", 0.0641],
  ["AGAATGACGTTATACGTAGATCAGGGAAGAAAGT", "PPARg DBDmut IVT, anti-PPARg (DBD mutation: PPARg1 K132A/R137A, NR concentration 270 nM)", 1.24],
  ["ACTAGCAGGCCAAGGGCCACTCAAGATTAGTCCG", "PPARg DBDmut IVT, anti-PPARg (DBD mutation: PPARg1 K132A/R137A, NR concentration 270 nM)", -1.82],
  ["TGATATAGGTAATACAGGTGAAAGTCGGCATCTA", "PPARg DBDmut IVT, anti-PPARg (DBD mutation: PPARg1 K132A/R137A, NR concentration 270 nM)", 1.13],
  ["CCGACTGGGACAAAGGTTACCATACTCAGTACGA", "PPARg DBDmut IVT, anti-PPARg (DBD mutation: PPARg1 K132A/R137A, NR concentration 270 nM)", 0.111],
  ["TAGCCTAGGTCATGCGGGCCACTATAGTGTCGGC", "PPARg DBDmut IVT, anti-PPARg (DBD mutation: PPARg1 K132A/R137A, NR concentration 270 nM)", 0.594],
  ["ACTAGCAGGCCCAGTTTGGGTCACTCAAACAAAG", "PPARg DBDmut IVT, anti-PPARg (DBD mutation: PPARg1 K132A/R137A, NR concentration 270 nM)", -0.708],
  ["CTCGAAAGGTCGGTTGAGGTGAGTAGACGGATAA", "PPARg DBDmut IVT, anti-PPARg (DBD mutation: PPARg1 K132A/R137A, NR concentration 270 nM)", -0.747]
]}

###

tested on: PPARg:RXRa (NR concentration 180 nM, RXRa partner concentration 90 nM); test: PBM binding z-score (relative to random genomic background probes); higher = stronger binding; sequences stand for … in GC…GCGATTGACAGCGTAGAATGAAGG

{"columns": ["Chain", "Target under test", "PBM binding z-score"],
 "data": [
  ["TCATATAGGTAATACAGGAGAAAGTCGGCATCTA", "PPARg:RXRa (NR concentration 180 nM, RXRa partner concentration 90 nM)", 1.23],
  ["ACTAGCATGCCAAGGGTCACTCAAGATTAGTCCG", "PPARg:RXRa (NR concentration 180 nM, RXRa partner concentration 90 nM)", 5.14],
  ["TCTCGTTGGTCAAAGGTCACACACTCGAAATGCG", "PPARg:RXRa (NR concentration 180 nM, RXRa partner concentration 90 nM)", 9.51],
  ["AATACAGGGTCGTCGTAGGCCAGAGTACGCACAG", "PPARg:RXRa (NR concentration 180 nM, RXRa partner concentration 90 nM)", 1.93],
  ["ATCTCTAGGCAAAGTTCAGTGAAAGATCGATAGA", "PPARg:RXRa (NR concentration 180 nM, RXRa partner concentration 90 nM)", 2.49],
  ["GCGACTGGGGCAAAGGAGGTTACCATAAGGTTGG", "PPARg:RXRa (NR concentration 180 nM, RXRa partner concentration 90 nM)", 3.15]
]}

###

tested on: THRa homodimer (NR concentration 90 nM); experiment: PBM binding z-score (relative to random genomic background probes); higher = stronger binding; sequences stand for … in GC…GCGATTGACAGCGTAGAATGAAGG
Attribute measured: PBM binding z-score

{"columns": ["Chain", "Observed"],
 "data": [
  ["GCTAGCAGGCCATTTGGGTTACTCAATGACGGGC", -0.64],
  ["GCTACTAGGTCAGGTTGGTCAGCTAACGGGTACG", 1.16],
  ["CCTGCTAGGTCTTGGTCAGCTAATCTACAGTATG", -0.108],
  ["CCTTCCGGGTCACTGACAGGTTATAGCATTTGGA", 2.25],
  ["GTCCCAAGGTGAATAGGTCGTTGATGAGTAGGCG", 0.76],
  ["CCGACTGGGGCAGTAAGGTTACCATACCATCCGG", 1.08],
  ["TCGAGTAGGTTAGGGGCATGCAGAATGGCGTCGA", 0.12],
  ["CGTCCAAGGCCAGAGAGGTCAGTGAATGCCGAGT", 0.817],
  ["TCTTGTAGATCTAGCAGGTTAAGAAAGCCTGAGT", -0.115],
  ["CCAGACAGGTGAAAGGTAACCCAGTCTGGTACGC", -0.0283],
  ["CATACAGGGTCAGCAAGGCCAGAGTAGGGACGGC", 1.03],
  ["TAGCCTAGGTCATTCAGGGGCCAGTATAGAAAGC", 0.509],
  ["CCTACTGGGACAAAAAGGTCATTGATGCCGATAA", 0.878],
  ["AGTCAAAGTTCACTAGATAACGTAAGATTCAGCT", -0.386],
  ["CAAACTAGGTCAGCGGAAGGTCAAAGTCCGCATG", 1.64],
  ["TCGAGTAGGTTAGTCGGGGCATACAGCCAACATA", -0.188],
  ["GATACAGGGTCAGCTAGAGGCCAGAGTTTGGAAA", 0.526],
  ["TAGCCTAGGTCATGCGGGCCAGTACAGTGTCGGC", 0.586],
  ["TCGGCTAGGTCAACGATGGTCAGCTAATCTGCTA", 0.739],
  ["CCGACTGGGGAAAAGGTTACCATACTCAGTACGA", -0.101],
  ["CGTTCAAGGTCAAGGTCAGTGAAAGAGACTCGAA", 4.1],
  ["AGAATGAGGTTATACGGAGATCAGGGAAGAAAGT", 0.836],
  ["TCGAGTAGGTTAATCGGGGCATTCAGCCAACATA", -0.373],
  ["TATTGTAGATCAGCAGGTTAAGAAAGCTGGCCAA", -0.952],
  ["TCATATATGTAAATGCTAGGTGAAAGTCCGATCT", 0.597],
  ["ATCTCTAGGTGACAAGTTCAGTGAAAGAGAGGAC", 0.652]
]}

###

tested on: LXRa homodimer (NR concentration 270 nM); experiment: PBM binding z-score (relative to random genomic background probes); higher = stronger binding; sequences stand for … in GC…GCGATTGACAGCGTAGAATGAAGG
Quick reference: PBM binding z-score of the listed items.

{"columns": ["Chain", "PBM binding z-score"],
 "data": [
  ["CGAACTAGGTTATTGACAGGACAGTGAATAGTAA", 0.37],
  ["ATCTCTAGGTAAAGTCCAGTGAAAGATCGATAGA", 0.0712],
  ["AGTCAAAGTTCATCTAGTTAACGTAAGATATGCT", 5.42],
  ["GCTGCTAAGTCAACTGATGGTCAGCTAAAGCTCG", -0.539],
  ["CCTTACGTGTCAAGGTTATAGCACGGGTGGTACG", 0.288],
  ["GGAACGAGGGCATTCGAGTTGACAGCATGGCGAT", -0.394],
  ["CCGACTGTGGCATAAGGTTACCATAAGCCAGCCC", 0.142],
  ["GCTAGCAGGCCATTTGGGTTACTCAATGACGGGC", -0.387],
  ["CCTAGCACGCCAGGGTCACTCAAGCATTTCGCTT", -0.519],
  ["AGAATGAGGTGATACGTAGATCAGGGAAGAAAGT", -0.435],
  ["TCTGCTAGGTCAACGATGGTCAGCTAGTCTGCTA", -0.369],
  ["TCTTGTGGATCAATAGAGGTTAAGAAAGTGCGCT", 0.355],
  ["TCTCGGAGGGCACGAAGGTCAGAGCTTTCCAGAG", 0.0808],
  ["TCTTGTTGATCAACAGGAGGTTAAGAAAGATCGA", 0.0425],
  ["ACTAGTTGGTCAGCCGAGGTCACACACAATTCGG", 2.4],
  ["CCTACTGGGCCAAAAACGTCATTGATGCCGATAA", -0.294],
  ["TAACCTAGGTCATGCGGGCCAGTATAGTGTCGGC", 1.83],
  ["AGTCTAAGTTCACTAGGTAACGTAAGATTCAGCT", 0.822],
  ["CGTCCATGGTCAAGGTCAGTGAAAGAGACTCGAA", 0.03],
  ["TTACCAAGGTGAAAAGTCGTTGATGCACGCCTTG", -0.432],
  ["ATCGAAAGGTCGACGAGATGAGTATACACCGTTT", 0.0102],
  ["CCTATTAGTTGACCCTAAGGGCAACCGAAGCTCG", 1.02],
  ["GCTGCTAGGTCAACGGATGGTCAGCTAAAGCTCG", -0.22],
  ["GGTGCTAGGTCAGGTTGGTCAGCTAACGGGTACG", 0.61],
  ["ATCTCTAGGTAAAGATAGTTAAGTGAATGCAAAT", -0.0773],
  ["TCGAGTGGGTTACCAATGGGGCATTCAGCTTTCT", -0.905],
  ["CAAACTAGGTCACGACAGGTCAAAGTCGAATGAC", 5.39],
  ["TCATATAGGTAAACGTGAAAGTCGAACGATATGA", -0.204],
  ["TCATATAGGTAAAAGATGAAAGTCGGTGTGGTAA", -0.031],
  ["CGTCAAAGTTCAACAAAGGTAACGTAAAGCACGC", 3.38],
  ["AGTCAAAGTCCATCTAGGTAACGTAAGATATGCT", 0.0157],
  ["CCTCGGAGGACAACAGGAGGCCAGAGCTGCCAGA", -0.358],
  ["TCTGCTAGGTCGACGATGGTCAGCTAATCTGCTA", -1.03],
  ["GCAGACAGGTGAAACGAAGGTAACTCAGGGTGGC", -0.444],
  ["TCGAGTAGGTTACCAATGGGGCATTCCGCTTTCT", -0.855],
  ["CAAACTAGGTCACGAAACGTCAAAGTCGAATGAC", 0.329],
  ["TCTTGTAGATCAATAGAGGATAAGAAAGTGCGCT", -0.0873],
  ["CGTCAAAGTTCAAGGTAACGTAACAGAAAGCAGC", 2.59],
  ["CCTACTAGGCCACGAAAGGTCATTGATTCAGTGA", 5.5],
  ["AGAATGAGGTTATTATGATCAGGGAATTGCGGTC", 0.202],
  ["CCAGCTAGGTCATGGTCAGCTAATCTACAGTATG", 0.125],
  ["TAGCCTAGGTCAGTTCGGGCCAGTATACGCTATA", -0.272],
  ["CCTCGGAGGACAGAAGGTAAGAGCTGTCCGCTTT", -0.965],
  ["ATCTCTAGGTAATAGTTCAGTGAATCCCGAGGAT", 0.496],
  ["CCTCGGAGGACAACAGGAGGTCAGAGATGCCAGA", 2.02],
  ["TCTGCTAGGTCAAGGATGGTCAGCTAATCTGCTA", -0.0468],
  ["TCTTGTAGATCATCAGGTTAAGAAAGCTGGCCAA", 0.27],
  ["TAGCTTAGGTCATGGGCCAGTATACCACGCGAAC", 0.14],
  ["ATCTCTAGGTAAAAAGTTCAGTGAAAGAGAGGAC", 1.03],
  ["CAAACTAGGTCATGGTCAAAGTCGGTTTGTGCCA", 0.245],
  ["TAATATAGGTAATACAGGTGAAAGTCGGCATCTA", 0.599]
]}
